This collection of values is drawn from patent US12441733B2.

system_name: IKZF3-GFP (Homo sapiens, UniProt Q96SW2+Q9UKT9)
Construct: expressed in transfected cells; host or cells: HEK293A (Invitrogen R70507), lentiviral transduction with pLenti6-IKZF3-GFP-Ires-RFP, blasticidin selection
Sequence (Q9UKT9 whole entry, one chain of several): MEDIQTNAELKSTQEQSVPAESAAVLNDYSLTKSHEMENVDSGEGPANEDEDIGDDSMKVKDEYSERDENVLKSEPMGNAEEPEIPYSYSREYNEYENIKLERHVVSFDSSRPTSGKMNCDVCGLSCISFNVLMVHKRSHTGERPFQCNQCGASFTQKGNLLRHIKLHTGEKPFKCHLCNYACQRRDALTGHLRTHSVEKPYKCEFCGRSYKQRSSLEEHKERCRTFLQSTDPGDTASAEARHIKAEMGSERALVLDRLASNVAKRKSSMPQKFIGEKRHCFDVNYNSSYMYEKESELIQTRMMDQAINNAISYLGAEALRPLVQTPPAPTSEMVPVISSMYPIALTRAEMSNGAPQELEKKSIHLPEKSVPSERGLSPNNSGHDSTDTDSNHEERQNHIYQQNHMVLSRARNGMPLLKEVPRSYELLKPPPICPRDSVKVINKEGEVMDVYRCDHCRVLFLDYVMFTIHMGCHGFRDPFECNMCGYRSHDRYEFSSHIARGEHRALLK
assay_details: IKZF3-GFP protein abundance flow cytometry assay in HEK293A cells
Assay type: cell-based
condition_notes: HEK293A IKZF3-GFP-iresRFP cells, 24 h, GFP signal by flow cytometry
Procedure: BTK-GFP and IKZF3-GFP protein abundance flow cytometry assay in HEK293A cells: Degradation of BTK or IKZF3 was measured in HEK293A cells (Invitrogen R70507) expressing either BTK-GFP and RFP or IKZF3-GFP and RFP from a stably integrated bicistronic BTK-GFP-iresRFP or IKZF3-GFP-iresRFP construct, respectively. Reduction of the GFP signal measured by flow cytometry served as readout for BTK or IKZF3 degradation after degrader treatment. […] Iii) Quantitative BTK-GFP and IKZF3-GFP Abundance Measurements […]
Exercise: for every item that follows, state its recorded DC50.

Data request: Test system IKZF3-GFP (Homo sapiens, UniProt Q96SW2+Q9UKT9); read-out DC50; what value for Cc1c(NC(=O)c2ccc(C(C)(C)O)cc2F)cc(F)cc1-c1ncnc2[nH]c(-c3ccc(CCN4CCC5(CC4)CCN(C(=O)c4cccc(N6CCC(=O)NC6=O)c4)CC5)cc3)cc12 [Compound 12] ?
Data returned: > 1100 nM

Data request: Test system IKZF3-GFP (Homo sapiens, UniProt Q96SW2+Q9UKT9); read-out DC50; what value for Cc1c(NC(=O)c2ccc(C(C)(C)O)cc2F)cc(F)cc1-c1ncnc2[nH]c(-c3ccc(CN4CCC5(CC4)CCN(C(=O)c4ccc(F)c(N6CCC(=O)NC6=O)c4)CC5)cc3)cc12 [Compound 14] ?
Data returned: > 1100 nM

Data request: Test system IKZF3-GFP (Homo sapiens, UniProt Q96SW2+Q9UKT9); read-out DC50; what value for Cc1ccc(C(=O)N(C)CCCCCNCc2ccc(-c3cc4c(-c5cc(F)cc(NC(=O)c6ccc(C(C)(C)O)cc6F)c5C)ncnc4[nH]3)cc2)cc1N1CCC(=O)NC1=O [Compound 30] ?
Data returned: > 3300 nM

Data request: Test system IKZF3-GFP (Homo sapiens, UniProt Q96SW2+Q9UKT9); read-out DC50; what value for COc1ccc(C(=O)N2CCN(C(=O)N3CCN(Cc4ccc(-c5cc6c(-c7cc(F)cc(NC(=O)c8ccc(C(C)(C)O)cc8F)c7C)ncnc6[nH]5)cc4)CC3)CC2)cc1N1CCC(=O)NC1=O [Compound 22] ?
Data returned: > 10000 nM

Data request: Test system IKZF3-GFP (Homo sapiens, UniProt Q96SW2+Q9UKT9); read-out DC50; what value for Cc1ccc(C(=O)N2CCC3(CCN(Cc4ccc(-c5cc6c(-c7cc(F)cc(NC(=O)c8ccc(C(C)(C)O)cc8F)c7C)ncnc6[nH]5)cc4)CC3)CC2)cc1N1CCC(=O)NC1=O [Compound 27] ?
Data returned: > 1100 nM

----------
Exercise: for every item that follows, state its recorded DC50.
system_name: IKZF3-GFP (Homo sapiens, UniProt Q96SW2+Q9UKT9)
Construct: expressed in transfected cells; host or cells: HEK293A (Invitrogen R70507), lentiviral transduction with pLenti6-IKZF3-GFP-Ires-RFP, blasticidin selection
assay_details: IKZF3-GFP protein abundance flow cytometry assay in HEK293A cells
Format: cell-based
condition_notes: HEK293A IKZF3-GFP-iresRFP cells, 24 h, GFP signal by flow cytometry

Data request: Could you tell me which DC50 is on file for Cc1c(NC(=O)c2ccc(C(C)(C)O)cc2F)cc(F)cc1-c1ncnc2[nH]c(-c3ccc(COC4CCN(CCC5CCN(C(=O)c6ccc(F)c(N7CCC(=O)NC7=O)c6)CC5)CC4)cc3)cc12 ?
Data returned: > 10 µM

Data request: Could you tell me which DC50 is on file for COc1ccc(C(=O)NCCN2CCC3(CC2)CCN(Cc2ccc(-c4cc5c(-c6cc(F)cc(NC(=O)c7ccc(C(C)(C)O)cc7F)c6C)ncnc5[nH]4)cc2)CC3)cc1N1CCC(=O)NC1=O ?
Data returned: > 3.3 µM

Data request: Could you tell me which DC50 is on file for COc1ccc(C(=O)N2CCC3(CCN(Cc4ccc(-c5cc6c(-c7cc(F)cc(NC(=O)c8ccc(C(C)(C)O)cc8F)c7C)ncnc6[nH]5)cc4)CC3)CC2)cc1N1CCC(=O)NC1=O ?
Data returned: > 7.8 µM

----------
system_name: BTK-GFP (Homo sapiens, UniProt Q06187+Q96SW2)
Construct: expressed in transfected cells; host or cells: HEK293A (Invitrogen R70507), lentiviral transduction with pLenti6-BTK-GFP-Ires-RFP, blasticidin selection
Sequence (Q06187 whole entry): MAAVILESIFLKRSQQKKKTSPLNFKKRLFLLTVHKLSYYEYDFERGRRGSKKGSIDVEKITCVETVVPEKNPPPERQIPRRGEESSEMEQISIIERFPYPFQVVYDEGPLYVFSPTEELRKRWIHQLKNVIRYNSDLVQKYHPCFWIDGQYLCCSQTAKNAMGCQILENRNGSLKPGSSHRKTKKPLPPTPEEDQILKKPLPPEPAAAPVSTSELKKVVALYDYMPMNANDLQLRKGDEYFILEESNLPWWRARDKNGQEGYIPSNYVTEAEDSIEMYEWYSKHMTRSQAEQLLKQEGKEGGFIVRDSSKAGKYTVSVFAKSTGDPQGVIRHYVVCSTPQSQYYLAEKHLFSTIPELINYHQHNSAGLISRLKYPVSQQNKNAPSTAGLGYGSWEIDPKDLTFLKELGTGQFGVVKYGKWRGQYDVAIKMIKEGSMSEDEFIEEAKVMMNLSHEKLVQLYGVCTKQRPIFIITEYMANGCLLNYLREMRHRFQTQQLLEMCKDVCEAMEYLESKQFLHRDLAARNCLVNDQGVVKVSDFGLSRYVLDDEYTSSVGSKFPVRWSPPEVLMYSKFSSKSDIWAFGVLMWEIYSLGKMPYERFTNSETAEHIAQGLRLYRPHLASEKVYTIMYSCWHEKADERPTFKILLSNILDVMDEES
Sequence (Q96SW2 whole entry): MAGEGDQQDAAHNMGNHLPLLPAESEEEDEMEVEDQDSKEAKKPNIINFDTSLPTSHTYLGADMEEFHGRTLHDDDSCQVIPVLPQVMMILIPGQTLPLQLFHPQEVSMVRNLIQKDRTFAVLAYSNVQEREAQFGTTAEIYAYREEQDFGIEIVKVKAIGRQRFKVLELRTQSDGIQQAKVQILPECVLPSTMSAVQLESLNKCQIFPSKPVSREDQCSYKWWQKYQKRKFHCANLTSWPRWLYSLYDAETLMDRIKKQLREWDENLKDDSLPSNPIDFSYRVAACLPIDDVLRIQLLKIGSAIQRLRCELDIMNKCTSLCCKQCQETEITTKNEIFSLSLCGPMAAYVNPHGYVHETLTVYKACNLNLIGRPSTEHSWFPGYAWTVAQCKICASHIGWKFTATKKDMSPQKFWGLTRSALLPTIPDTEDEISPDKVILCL
Sequence (Q16531 whole entry partner): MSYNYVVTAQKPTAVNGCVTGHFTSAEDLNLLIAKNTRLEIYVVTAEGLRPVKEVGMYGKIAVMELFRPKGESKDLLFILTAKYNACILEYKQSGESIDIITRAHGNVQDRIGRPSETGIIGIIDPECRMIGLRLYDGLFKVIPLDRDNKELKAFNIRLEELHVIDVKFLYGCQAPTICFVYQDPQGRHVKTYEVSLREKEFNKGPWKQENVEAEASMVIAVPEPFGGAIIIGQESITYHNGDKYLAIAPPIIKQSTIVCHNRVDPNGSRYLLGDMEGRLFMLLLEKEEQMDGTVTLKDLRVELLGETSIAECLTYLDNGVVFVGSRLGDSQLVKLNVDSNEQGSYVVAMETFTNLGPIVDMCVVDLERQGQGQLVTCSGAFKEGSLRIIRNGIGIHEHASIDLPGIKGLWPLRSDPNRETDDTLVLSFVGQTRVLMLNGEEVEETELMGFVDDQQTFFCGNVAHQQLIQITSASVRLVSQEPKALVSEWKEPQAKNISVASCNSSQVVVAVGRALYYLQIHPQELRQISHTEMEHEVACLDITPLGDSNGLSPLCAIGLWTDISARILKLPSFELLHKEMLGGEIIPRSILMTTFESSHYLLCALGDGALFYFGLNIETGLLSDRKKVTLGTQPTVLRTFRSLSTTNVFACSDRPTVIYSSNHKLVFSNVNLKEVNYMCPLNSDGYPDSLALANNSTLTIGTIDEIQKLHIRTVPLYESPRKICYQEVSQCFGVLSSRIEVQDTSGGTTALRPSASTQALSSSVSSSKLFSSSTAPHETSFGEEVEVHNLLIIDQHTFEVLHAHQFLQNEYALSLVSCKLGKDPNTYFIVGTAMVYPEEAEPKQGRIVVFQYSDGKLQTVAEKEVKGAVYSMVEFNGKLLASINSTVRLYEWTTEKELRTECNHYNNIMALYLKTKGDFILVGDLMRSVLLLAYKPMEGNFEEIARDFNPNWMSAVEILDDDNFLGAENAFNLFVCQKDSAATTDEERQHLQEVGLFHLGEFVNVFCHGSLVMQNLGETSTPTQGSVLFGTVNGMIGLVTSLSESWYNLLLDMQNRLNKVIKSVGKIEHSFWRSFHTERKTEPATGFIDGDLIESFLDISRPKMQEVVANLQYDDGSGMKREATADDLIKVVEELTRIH
assay_details: BTK-GFP protein abundance flow cytometry assay in HEK293A cells
Type: cell-based
condition_notes: HEK293A BTK-GFP-iresRFP cells, 24 h; % protein remaining at the concentration at which maximum degradation is seen
Exercise: for every item that follows, state its recorded BTK deg Amax.
Unit % implied. Number only.

Data request: Could you tell me which BTK deg Amax is on file for COc1ccc(C(=O)N2CCC(CN3CCC(Oc4ccc(-c5cc6c(-c7cc(F)cc(NC(=O)c8ccc(C(C)(C)O)cc8F)c7C)ncnc6[nH]5)cc4)CC3)CC2)cc1N1CCC(=O)NC1=O [Compound 19] ?
Data returned: 2.7

Data request: Could you tell me which BTK deg Amax is on file for COc1ccc(C(=O)N2CCC(CCN3CCC(COc4ccc(-c5cc6c(-c7cc(F)cc(NC(=O)c8ccc(C(C)(C)O)cc8F)c7C)ncnc6[nH]5)cc4)CC3)CC2)cc1N1CCC(=O)NC1=O [Compound 43] ?
Data returned: 2.3

Data request: Could you tell me which BTK deg Amax is on file for COc1ccc(C(=O)NCCN2CC3(CCN(Cc4ccc(-c5cc6c(-c7cc(F)cc(NC(=O)c8ccc(C(C)(C)O)cc8F)c7C)ncnc6[nH]5)cc4)CC3)C2)cc1N1CCC(=O)NC1=O [Compound 52] ?
Data returned: 43.7

Data request: Could you tell me which BTK deg Amax is on file for COc1ccc(C(=O)NCCN2CCC3(CC2)CCN(Cc2ccc(-c4cc5c(-c6cc(F)cc(NC(=O)c7ccc(C(C)(C)O)cc7F)c6C)ncnc5[nH]4)cc2)C3)cc1N1CCC(=O)NC1=O [Compound 35] ?
Data returned: 7.6

Data request: Could you tell me which BTK deg Amax is on file for COc1ccc(C(=O)N2CCN(C(=O)N3CCN(Cc4ccc(-c5cc6c(-c7cc(F)cc(NC(=O)c8ccc(C(C)(C)O)cc8F)c7C)ncnc6[nH]5)cc4)CC3)CC2)cc1N1CCC(=O)NC1=O [Compound 22] ?
Data returned: 6.5

----------
system_name: IKZF3-GFP (Homo sapiens, UniProt Q96SW2+Q9UKT9)
Construct: expressed in transfected cells; host or cells: HEK293A (Invitrogen R70507), lentiviral transduction with pLenti6-IKZF3-GFP-Ires-RFP, blasticidin selection
assay_details: IKZF3-GFP protein abundance flow cytometry assay in HEK293A cells
Format: cell-based
condition_notes: HEK293A IKZF3-GFP-iresRFP cells, 24 h, GFP signal by flow cytometry
Exercise: for every item that follows, state its recorded DC50.

Data request: Could you tell me which DC50 is on file for Cc1c(NC(=O)c2ccc(C(C)(C)O)cc2F)cc(F)cc1-c1ncnc2[nH]c(-c3ccc(CCN4CCC5(CC4)CCN(C(=O)c4ccc(F)c(N6CCC(=O)NC6=O)c4)CC5)cc3)cc12 [Compound 47] ?
Data returned: > 1.1 µM

Data request: Could you tell me which DC50 is on file for Cc1cc(F)c(C(=O)NCCCCCNCc2ccc(-c3cc4c(-c5cc(F)cc(NC(=O)c6ccc(C(C)(C)O)cc6F)c5C)ncnc4[nH]3)cc2)cc1N1CCC(=O)NC1=O [Compound 29] ?
Data returned: > 3.3 µM

Data request: Could you tell me which DC50 is on file for COc1ccc(C(=O)NCCN2CCOC3(CCN(Cc4ccc(-c5cc6c(-c7cc(F)cc(NC(=O)c8ccc(C(C)(C)O)cc8F)c7C)ncnc6[nH]5)cc4)CC3)C2)cc1N1CCC(=O)NC1=O [Compound 39] ?
Data returned: > 10 µM

Data request: Could you tell me which DC50 is on file for CCOc1ccc(C(=O)N2CCC3(CCN(Cc4ccc(-c5cc6c(-c7cc(F)cc(NC(=O)c8ccc(C(C)(C)O)cc8F)c7C)ncnc6[nH]5)cc4)CC3)CC2)cc1N1CCC(=O)NC1=O [Compound 4] ?
Data returned: > 1.1 µM

Data request: Could you tell me which DC50 is on file for COc1ccc(C(=O)N2CCC(OC3CCN(CCc4ccc(-c5cc6c(-c7cc(F)cc(NC(=O)c8ccc(C(C)(C)O)cc8F)c7C)ncnc6[nH]5)cc4)CC3)CC2)cc1N1CCC(=O)NC1=O [Compound 34] ?
Data returned: > 10 µM
